Molecular target: Aurora2 kinase (Homo sapiens)
Construct: A complete recombinant Aurora2 enzyme; His tag (N); made in house; host or cells: E. coli
Sequence (O14965 1-403): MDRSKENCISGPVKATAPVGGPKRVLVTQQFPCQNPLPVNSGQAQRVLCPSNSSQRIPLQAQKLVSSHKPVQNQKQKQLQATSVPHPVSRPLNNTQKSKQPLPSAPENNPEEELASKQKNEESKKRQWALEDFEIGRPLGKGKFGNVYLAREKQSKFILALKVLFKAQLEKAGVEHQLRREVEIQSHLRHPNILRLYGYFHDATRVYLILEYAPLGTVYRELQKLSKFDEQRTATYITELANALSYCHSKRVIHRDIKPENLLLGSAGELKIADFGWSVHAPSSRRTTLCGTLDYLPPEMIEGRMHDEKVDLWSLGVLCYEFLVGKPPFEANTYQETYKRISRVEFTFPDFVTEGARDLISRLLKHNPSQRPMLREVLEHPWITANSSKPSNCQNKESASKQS
Assay: Aurora2 kinase radioactivity scintillation assay using nickel chelate (NuMA substrate)
Format: biochemical
Conditions: 10 μM; read-out: Aurora2 % inhib at 10 μM
Result Type: inhibition at 10 µM (%)
Answers are plain numbers, in %.

CS(=O)(=O)c1ccccc1S(=O)(=O)Nc1ccc2[nH]nc(-c3ccc(-c4ccccc4)c(F)c3)c2c1 [Example 210]	65
CS(=O)(=O)c1ccccc1S(=O)(=O)Nc1ccc2[nH]nc(/C=C/C(=O)O)c2c1.Cl [Example 80]	89
CS(=O)(=O)c1ccccc1S(=O)(=O)Nc1ccc2[nH]nc(C(=O)Nc3ccccc3)c2c1 [Example 18]	97
CS(=O)(=O)c1ccccc1S(=O)(=O)Nc1ccc2[nH]nc(-c3cc4ccccc4o3)c2c1 [Example 180]	99
CS(=O)(=O)c1ccccc1S(=O)(=O)Nc1ccc2[nH]nc(-c3nc4ccccc4[nH]3)c2c1 [Example 81]	100

# batch: return inhibition at 10 µM for each of the 2 compounds below
1. CS(=O)(=O)c1ccccc1S(=O)(=O)Nc1ccc2[nH]nc(-c3cccc(C(=O)O)c3)c2c1 [Example 56]
2. CS(=O)(=O)c1ccccc1S(=O)(=O)Nc1ccc2[nH]nc(CCc3ccc(F)cc3)c2c1 [Example 75]

[A]
1. 87
2. 87
